tested on: MS2 coat protein; assay: apparent KD of MS2 coat protein; designed switch direction (-1 OFF switch, 1 ON switch): -1; higher = weaker reporter binding; conditions: Eterna round: R95; input ligand: none
ATTRIBUTE_MEASURED: apparent KD of MS2 coat protein (nM)
Quick reminder: number only, in nM, skip the unit.

Examples with answers:
Name the recorded apparent KD of MS2 coat protein for UAGAAGGUAGGAUAUACGAAUAAAUAGGGUAGGAAGAAGACACAUGAGGAUCACCCAUGUAGAAGGACCAAGAU [Mat - Exclusion 2 - Mod of my Tesla design - D34] (puzzle: Exclusion 2) .
18.5

Name the recorded apparent KD of MS2 coat protein for CCGAGGUGGCGGUCCUAUGACAUGAGGAUCACCCAUGUACCUCGCCACAAGCUCUUUGCUCAUCUUAUAGUUCUCGG [Onlaor] (puzzle: Sensor v3, turn-off variant 1) .
17.9

Name the recorded apparent KD of MS2 coat protein for UUUAAUUUUUUUUUUUUACAAGCUUUUUGCUCGUCUUAUACAUGAGGAUCACCCAUGUGAGUGGAAGAUAAAUUAUC [JMF 11] (puzzle: Sensor v3, turn-off variant 2) .
17.9

Name the recorded apparent KD of MS2 coat protein for GAUUAUGCGAGCUUUAGGGACAUGAGGAUCACCCAUGUUCGUCUUAUUAAUCUGGGUACACUGACAUACCUAAAUCU [JMF 69] (puzzle: Sensor v3, turn-off variant 1) .
33.9

Name the recorded apparent KD of MS2 coat protein for CGUUCUCGAGUCAGGAUAUCGACUAAUUCCCAAGUCGAGAAGGGACAUGAGGAUCACCCAUGUAAAGAAAAGAA [Ainteedle] (puzzle: Brourd's mod of Exclusion 4) .
30.3

Continuing:
Name the recorded apparent KD of MS2 coat protein for GUGUAGUAAGGAUAUAGAAAGAGGGAGUAAGAUAGAGAGUUCUAGAAGGUACAUGAGGAUCACCCAUGUUGGAG [JR_Exclu4_Sub082] (puzzle: Exclusion 4) .
27.8

Name the recorded apparent KD of MS2 coat protein for CGGUGCUGAGGAUAUACAUGAGGAUCACCCAUGUGUUCCUGCUAGCGUACUGGCAGAUGUAGAAGGCGGUACUG [JL-ex3-3.44 Brourd mod] (puzzle: Exclusion 3) .
26.7

Name the recorded apparent KD of MS2 coat protein for GUAAUUAUAUAGGAUAUCGAAUUUAUUAUUUAACGAGAAGGAUGAACAUGAGGAUCACCCAUGUGGUAUCAUGG [JL-ex6-3.04] (puzzle: Exclusion 6) .
165

Name the recorded apparent KD of MS2 coat protein for GGUCAAGAACAGAACCGCGCUGCCAUUGACCGCUCAUUUACAUGAGGAUCACCCAUGUUUUUUGCUUGUCUUGUUAC [Beusdieson] (puzzle: Sensor v3, turn-off variant 2) .
18.7

Name the recorded apparent KD of MS2 coat protein for CUAGAUCUUCGGAUCUAGUACAUGAGGAUCACCCAUGUGACGAGUAUAUCCUCAAACAAGCUUUUUGCUCGUCUUAU [Sensor v3 - Turn-off variant 1 - 21] (puzzle: Sensor v3, turn-off variant 1) .
172

---

tested on: MS2 coat protein; assay: apparent KD of MS2 coat protein; designed switch direction (-1 OFF switch, 1 ON switch): -1; higher = weaker reporter binding; details: input ligand: none
Parameter apparent KD of MS2 coat protein: see the listing below.
Quick reminder: number only, in nM, skip the unit.

Examples with answers:
Name the recorded apparent KD of MS2 coat protein for UCGUGUCUUGAGGAUAUGUUUGAAAAGGCCCACGCAGAAGGCGAGACAUGAGGAUCACCCAUGUCACAGCUCCG [EX6 C.16] (Eterna round: R97, puzzle: Exclusion 6) .
18.6

Name the recorded apparent KD of MS2 coat protein for UUGGUUGUGGUAGGAUAUCCGUUGGAAACCUUCGGAGAAGGACCACAGUCACUGGGUCUUUGUCUGGUGGACGGUGAAAACCGU [pwkr exNG1 F6.22] (Eterna round: R96, puzzle: Exclusion NG 1) .
730

Name the recorded apparent KD of MS2 coat protein for AGUACUAUCACGAAAGUGAUAGUACAAAGAGCAAGUGGAACAUGAGGAUCACCCAUGUCCUCAUAUGCUCGUCUUAU [salish99-s2-v2-x003] (Eterna round: R96, puzzle: Sensor v2, turn-off variant 2) .
16.1

Name the recorded apparent KD of MS2 coat protein for UUUUAGUCAGGAUAUACAUGAGGAUCACCCAUGUAAAAUUUUAAUUUAAUUUGAAGGUGUAGAAGGGACAUUUU [Ex3 #40] (Eterna round: R97, puzzle: Exclusion 3) .
27.8

Then there is this sequence:
Name the recorded apparent KD of MS2 coat protein for CGUGGACAUAACAAGCUUUACAUGAGGAUCACCCAUGUGAUCAUGCUCGUCUUAUGGUCCACGAAUUAAUUAAUUAG [Stov1/6-C2] (Eterna round: R97, puzzle: Sensor, turn-off variant 1) .
18.3

---

Parameter apparent KD of K4 kissing-loop reporter: see the listing below.
system: K4 kissing-loop RNA reporter; assay: apparent KD of K4 kissing-loop reporter; higher = weaker reporter binding; details: Eterna round: R107; input ligand: arginine 13.2 mM
Report as: number unit

Report apparent KD of K4 kissing-loop reporter for AAUUUAUUAUCUGAUACCAGACUUUUUCUUGUUUAUAAGUCAAGUGAUGUUUGACUUUUAGUCCCUUGGCAGCAGUAUUUUUUAA [JR_Nu_SSTheophyB_Sub026] tested on K4 kissing-loop RNA reporter.
128 nM

Report apparent KD of K4 kissing-loop reporter for AACGGCCAGUCGGCCGCCACUCGAUGCAGUGAUGUUGCUAACUUUCUAAAAGAGUGAUGUUCAUGGAGGACCGGGACUAAUGUAA [#29 K4 Tryptophan B Exclusion] tested on K4 kissing-loop RNA reporter.
298 nM

Then there is this sequence:
Report apparent KD of K4 kissing-loop reporter for CCGCCGGUCGGAAGGAGCGCACGCCAGAGUGAUGUUCUGGCGCGGGCACUUUAUGCCCGCGUGCAGGUAGGUCGCCGAUUCUGGC [Mabema] tested on K4 kissing-loop RNA reporter.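 Also: bound reporter read as fluorescence of individual clusters on recovered sequencing chips by microscopy, with normalized cluster intensities fitted with a binding model.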
426 nM

---

tested on: MS2 coat protein; experiment: apparent KD of MS2 coat protein; designed switch direction (-1 OFF switch, 1 ON switch): 1; higher = weaker reporter binding; conditions: input ligand: FMN 200 uM
ATTRIBUTE_MEASURED: apparent KD of MS2 coat protein (nM)
Quick reminder: number only, in nM, skip the unit.

Examples with answers:
Name the recorded apparent KD of MS2 coat protein for GCUCGAUGUGUUGUCUACAUGAGGAUCACCCAUGUAGAUGCGGAGGAUAUCUACGUGCUUUAUGUAGAGAAGGUCGUAUCGAGC [SameState NG3 #85] (Eterna round: R96, puzzle: Same State NG 3) .
18

Name the recorded apparent KD of MS2 coat protein for GCGAGCGUACUUGCUACAUGAGGAUCACCCAUGUUCGUUGGACAGGAUAUGGUACCGUUUCGGUACCAGAAGGGUUCACAUGUG [JL SSNG3 3.78] (Eterna round: R96, puzzle: Same State NG 3) .
142

Name the recorded apparent KD of MS2 coat protein for AGCUAGUACGAAGGAUAUACAAACAUGAGGAUCACCCAUGUAUACAUGGUUUAAUGAGACUACAUGUAGAAGGUCGUACUAGCA [SameState NG2 #13] (Eterna round: R96, puzzle: Same State NG 2) .
559

Name the recorded apparent KD of MS2 coat protein for AAACAUGAGCGAGGAUAUGCGGACGAUUACGCUGUAGAAGGCGCAUGUAAAACAACAUGAGGAUCACCCAUGUCAUGUACAUGA (Eterna round: R96, puzzle: Same State NG 1) .
81.3

Then there is this sequence:
Name the recorded apparent KD of MS2 coat protein for UUCAACUGAGGAGGAUAUGCAGAGGAUCACCCUGUAGAAGGCCUCGAAAGGAGGAUAUGCAGAGGAUCACCCUGUAGAAGGCCU [pwkr ssNG DX.19] (Eterna round: R96, puzzle: Same State NG 1) .
417

---

system: MS2 coat protein; test: apparent KD of MS2 coat protein; designed switch direction (-1 OFF switch, 1 ON switch): -1; higher = weaker reporter binding; settings: input ligand: microRNA oligo, concentration not stated
Parameter apparent KD of MS2 coat protein: see the listing below.
Quick reminder: number only, in nM, skip the unit.

Name the recorded apparent KD of MS2 coat protein for GGUACUCAAAGAGUACCAAUACGAACAUGAGGAUCACCCAUGUAGGAUAUGCUACUCAAAGAGUAGCAGAAGGACAUGAACCCU [Far Half Aptamer v7] (Eterna round: R96, puzzle: Exclusion NG 3) .
38.3

Name the recorded apparent KD of MS2 coat protein for AGGUGAGCCGUCAGGAUAUGCGUUCCGUAGGGUCAGCAGAAGGGACAUGAGGAUCACCCAUGUUUCGCACGUGG [Veraxedi] (Eterna round: R96, puzzle: Brourd's mod of Exclusion 4) .
23.5
